ASSAY SYSTEM: TLR7 (Homo sapiens, UniProt Q9NYK1)
Sequence (Q9NYK1 27-1049): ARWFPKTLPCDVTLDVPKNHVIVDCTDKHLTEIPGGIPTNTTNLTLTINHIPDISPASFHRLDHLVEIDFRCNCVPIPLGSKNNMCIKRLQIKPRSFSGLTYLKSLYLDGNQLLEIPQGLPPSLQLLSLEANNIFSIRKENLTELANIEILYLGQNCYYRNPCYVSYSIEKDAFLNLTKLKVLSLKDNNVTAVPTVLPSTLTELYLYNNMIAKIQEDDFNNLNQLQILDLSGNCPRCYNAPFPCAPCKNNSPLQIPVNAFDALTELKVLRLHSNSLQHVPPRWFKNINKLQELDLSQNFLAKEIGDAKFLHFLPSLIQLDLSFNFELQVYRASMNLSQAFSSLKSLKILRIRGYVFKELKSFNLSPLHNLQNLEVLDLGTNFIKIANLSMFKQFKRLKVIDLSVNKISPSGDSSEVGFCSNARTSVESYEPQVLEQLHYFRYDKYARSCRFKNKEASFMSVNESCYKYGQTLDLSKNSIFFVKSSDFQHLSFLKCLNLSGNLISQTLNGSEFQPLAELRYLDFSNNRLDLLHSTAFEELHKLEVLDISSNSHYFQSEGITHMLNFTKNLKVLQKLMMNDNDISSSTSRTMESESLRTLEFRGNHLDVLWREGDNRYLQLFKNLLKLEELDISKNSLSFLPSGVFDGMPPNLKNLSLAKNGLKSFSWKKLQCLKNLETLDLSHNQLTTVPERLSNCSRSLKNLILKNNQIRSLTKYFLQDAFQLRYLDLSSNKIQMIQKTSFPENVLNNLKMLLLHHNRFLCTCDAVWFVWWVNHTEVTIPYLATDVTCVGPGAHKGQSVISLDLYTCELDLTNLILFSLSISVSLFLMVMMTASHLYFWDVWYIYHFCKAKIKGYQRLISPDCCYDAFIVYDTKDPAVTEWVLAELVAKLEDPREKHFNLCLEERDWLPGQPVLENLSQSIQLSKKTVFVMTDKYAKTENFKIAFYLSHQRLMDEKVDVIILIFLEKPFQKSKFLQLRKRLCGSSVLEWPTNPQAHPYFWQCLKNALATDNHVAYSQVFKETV
METHOD NOTES: HEK/293 TLR7 Cell Assay
CONDITION INFO: TLR7/NFKb HEK cells, R848 agonist 10 uM final concentration, Steady-Glo readout; read-out: TLR7 potency
READOUT KIND: IC50

Examples with answers:
Exercise: What reported IC50 corresponds to CC(C(=O)N[C@@H]1C[C@H](C)CN(c2ccc(C#N)c3nccnc23)C1)N1CCC(O)CC1 (single isomer, unassigned) [Example 102] on TLR7 (Homo sapiens, UniProt Q9NYK1)?
Key: < 75 nM

Exercise: What reported IC50 corresponds to C[C@@H](O)CNC(=O)[C@H]1CN(c2ccc(C#N)c3nccnc23)C[C@@H](C(F)(F)F)O1 (single isomer, unassigned) [Example 278] on TLR7 (Homo sapiens, UniProt Q9NYK1)?
Key: > 150 nM

# context switch: different molecule, same IC50
Exercise: What reported IC50 corresponds to N#Cc1ccc(N2C[C@@H](C(F)(F)F)O[C@@H](C(=O)N[C@H]3CNC[C@H]3F)C2)c2nccnc12 (single isomer, unassigned) [Example 303] on TLR7 (Homo sapiens, UniProt Q9NYK1)?
Key: < 75 nM

Attribution: patent US20210300940A1
